Biological target: A. baumannii PBP2 (Acinetobacter baumannii, UniProt D0C8Z9)
Sequence (D0C8Z9 whole entry): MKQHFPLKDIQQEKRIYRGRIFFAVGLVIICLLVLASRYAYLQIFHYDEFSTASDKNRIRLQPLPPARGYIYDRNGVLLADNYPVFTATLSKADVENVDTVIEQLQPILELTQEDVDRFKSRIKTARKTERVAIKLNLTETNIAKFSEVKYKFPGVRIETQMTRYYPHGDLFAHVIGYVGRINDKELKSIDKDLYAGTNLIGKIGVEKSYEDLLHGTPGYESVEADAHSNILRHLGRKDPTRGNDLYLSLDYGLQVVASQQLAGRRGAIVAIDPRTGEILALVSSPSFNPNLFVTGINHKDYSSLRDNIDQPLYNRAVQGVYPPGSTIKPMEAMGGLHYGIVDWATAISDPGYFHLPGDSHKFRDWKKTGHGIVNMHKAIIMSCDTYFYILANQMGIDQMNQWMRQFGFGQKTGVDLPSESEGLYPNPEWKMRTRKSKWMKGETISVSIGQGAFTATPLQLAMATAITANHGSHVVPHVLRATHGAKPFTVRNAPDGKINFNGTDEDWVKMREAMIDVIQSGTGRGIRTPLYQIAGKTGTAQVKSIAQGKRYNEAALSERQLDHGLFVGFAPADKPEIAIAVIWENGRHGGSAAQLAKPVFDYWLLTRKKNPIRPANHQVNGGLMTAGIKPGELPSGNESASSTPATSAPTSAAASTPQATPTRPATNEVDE
Assay: Bocillin-FL competition binding via gel filtration, A. baumannii PBP2
pEC50: −log10 of the molar value.
property.name: pEC50

// worked examples, pEC50 included
O=C(O)c1c(F)ccc2c1OB(O)[C@@H](NC(=O)[C@H](NC(=O)N1CCN(C3CCN(C(=O)Nc4cc(F)c(F)c(O)c4F)CC3)C(=O)C1=O)c1cc(F)c(O)c(O)c1Cl)C2; > 5.00
O=C(NCCCN1CCN(C(=O)NC(C(=O)N[C@H]2Cc3ccc(F)c(C(=O)O)c3OB2O)c2cc(F)c(O)c(O)c2Cl)C(=O)C1=O)c1ccc(F)c(O)c1F (some centres unmarked); > 5.00
NCc1ccc(C(=O)N2CCC(N3CCN(C(=O)NC(C(=O)N[C@H]4Cc5ccc(F)c(C(=O)O)c5OB4O)c4cc(F)c(O)c(O)c4Cl)C3=O)CC2)cc1O (single isomer, unassigned); 4.30 to 5.00
O=C(NCCCN1CCN(C(=O)N[C@@H](C(=O)N[C@H]2Cc3ccc(F)c(C(=O)O)c3OB2O)c2cc(F)c(O)c(O)c2Cl)C1=O)Nc1ccc(O)cc1; > 5.00
O=C(O)c1c(F)ccc2c1OB(O)[C@@H](NC(=O)[C@H](NC(=O)N1CCN(C3CCN(C(=O)c4cc(O)c(F)c(O)c4)CC3)C1=O)c1cc(F)c(O)c(O)c1Cl)C2 (single isomer, unassigned); > 5.00
O=C(NCCN1CCN(C(=O)N[C@@H](C(=O)N[C@H]2Cc3ccc(F)c(C(=O)O)c3OB2O)c2ccc(P(=O)(O)O)cc2)C(=O)C1=O)c1ccc(O)c(O)c1Cl; 4.30 to 5.00
O=C(O)c1c(F)ccc2c1OB(O)[C@@H](NC(=O)C(NC(=O)N1CCN(C3CCN(C(=O)Nc4ccc(F)c(O)c4F)CC3)C(=O)C1=O)c1cc(F)c(O)c(O)c1Cl)C2 (some centres unmarked); > 5.00
O=C(O)c1c(F)ccc2c1OB(O)[C@@H](NC(=O)[C@@H](NC(=O)N1CCN(C3CCN(S(=O)(=O)c4ccc5[nH]nnc5c4)CC3)C1=O)c1cc(F)c(O)c(O)c1Cl)C2 (single isomer, unassigned); > 5.00
O=C(O)c1c(F)ccc2c1OB(O)[C@@H](NC(=O)C(NC(=O)N1CCN(Cc3cc(F)c(O)c(O)c3Cl)C(=O)C1=O)c1ccc(P(=O)(O)O)cc1)C2 (some centres unmarked); > 5.00
O=C(O)c1c(F)ccc2c1OB(O)[C@@H](NC(=O)[C@H](NC(=O)N1CCN(C3CCN(C(=O)c4cccnc4)CC3)C1=O)c1cc(F)c(O)c(O)c1Cl)C2; 4.30 to 5.00

Give its pEC50 value. Item: O=C(NCCCN1CCN(C(=O)NC(C(=O)N[C@H]2Cc3ccc(F)c(C(=O)O)c3OB2O)c2cc(F)c(O)c(O)c2Cl)C(=O)C1=O)c1ccccc1 (some centres unmarked)
3.60 to 4.30

What measured pEC50 goes with O=C(O)c1c(F)ccc2c1OB(O)[C@@H](NC(=O)C(NC(=O)N1CCN(Cc3ccc(O)c(O)c3Cl)C1=O)c1ccc(P(=O)(O)O)cc1)C2 (some centres unmarked) ?
4.30 to 5.00

Looking for the measured pEC50 of O=C(O)c1c(F)ccc2c1OB(O)[C@@H](NC(=O)C(NC(=O)N1CCN(C3CCN(C(=O)Nc4cc(O)c(F)c(F)c4)CC3)C(=O)C1=O)c1cc(F)c(O)c(O)c1Cl)C2 (some centres unmarked) , can you help?
4.30 to 5.00

Recorded pEC50 for O=C(O)c1c(F)ccc2c1OB(O)[C@@H](NC(=O)C(NC(=O)N1CCN(Cc3ccc(O)c(O)c3Cl)C(=O)C1=O)c1ccc(P(=O)(O)O)c(F)c1)C2 (some centres unmarked) , please?
> 5.00

Data request, read-out pEC50, for O=C(O)c1c(F)ccc2c1OB(O)[C@@H](NC(=O)C(NC(=O)N1CCN(C3CCN(C(=O)Nc4cc(O)cc(F)c4)CC3)C(=O)C1=O)c1cc(F)c(O)c(O)c1Cl)C2 (some centres unmarked)
> 5.00

Which pEC50 is reported for this compound? O=C(NCCCN1CCN(C(=O)NC(C(=O)N[C@H]2Cc3ccc(F)c(C(=O)O)c3OB2O)c2cc(F)c(O)c(O)c2Cl)C(=O)C1=O)c1cccc(O)c1F (some centres unmarked)
4.30 to 5.00
